System: A2780 human ovarian cancer cells
method: In vitro cell proliferation assay (CellTiter-Glo, 72 hours)
Format: cell-based
Record form. Attribute: pIC50. Fill in for each entry.
Just the number, please; pIC50 means minus log10 of the concentration in mol/L.

In: In one line, give reported pIC50 of the entry `CN(C)CCCN1CCN(c2ccc(OC(F)(F)F)c(Nc3ncc4c(n3)-c3c(c(C(N)=O)nn3C)CC4)c2)CC1` .
Out: 6.28

In: Give reported pIC50 value for `Cc1ccc(N2CCN(C)CC2)cc1Nc1ncc2c(n1)-c1c(c(C(=O)O)nn1C)CC2`
Out: 5.89

In: For the compound `COc1ccc(CO)cc1Nc1ncc2c(n1)-c1c(c(C(N)=O)nn1C)CC2` , give its reported pIC50.
Out: 6.83

In: Give a short answer stating reported pIC50 for `NC(=O)c1nn(CCF)c2c1CCc1cnc(Nc3ccccc3OC(F)(F)F)nc1-2` .
Out: 6.30
